Biological target: SCRIB-3 (Homo sapiens)
Construct: synthetic peptide that targets SCRIB PDZ domains 1, 2, and 3; GST; made in house; host or cells: E. coli
Sequence (Q14160 1004-1093 limits assumed): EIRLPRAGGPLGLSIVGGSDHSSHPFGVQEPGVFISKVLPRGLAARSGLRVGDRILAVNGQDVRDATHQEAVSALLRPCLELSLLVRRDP
Assay: Competition ELISA, peptide affinity for PDZ domain
Assay type: binding
pIC50: −log10 of the molar value.
READOUT LABEL: pIC50

Prompt: Kindly state the measured pIC50 obtained for Ac-KMARAARSKV-OH [peptide 11] with SCRIB-3 (Homo sapiens).
Response: < 3.30

----------
Target: SCRIB-2 (Homo sapiens)
Construct: synthetic peptide that targets SCRIB PDZ domains 1, 2, and 3; GST; made in house; host or cells: E. coli
Sequence (Q14160 862-950 limits assumed): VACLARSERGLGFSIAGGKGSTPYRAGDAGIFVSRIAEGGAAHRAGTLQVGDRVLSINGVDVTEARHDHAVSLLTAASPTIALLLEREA
Experiment: Competition ELISA, peptide affinity for PDZ domain
Type: binding
pIC50: −log10 of the molar value.
READOUT LABEL: pIC50

Prompt: For Ac-KMARAARSKV-OH [peptide 11] , what is its reported pIC50?
Response: < 3.30

----------
Molecular target: SCRIB-1 (Homo sapiens)
Construct: synthetic peptide that targets SCRIB PDZ domains 1, 2, and 3; GST; made in house; host or cells: E. coli
Sequence (Q14160 728-815 limits assumed): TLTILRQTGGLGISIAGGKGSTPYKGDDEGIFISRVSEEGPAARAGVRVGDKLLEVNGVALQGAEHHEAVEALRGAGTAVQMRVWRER
Experiment: Competition ELISA, peptide affinity for PDZ domain
Assay type: binding
pIC50: −log10 of the molar value.
READOUT LABEL: pIC50

Prompt: For Ac-KMARAARSKV-OH [peptide 11] , what is its reported pIC50?
Response: < 3.30
